target: hMAO-A (Homo sapiens, UniProt P21397); construct: purchased Aldrich (Milan, Italy); test: biochemical; settings: read-out: hMAO-A % inhibition at 10 μM ± SD; 10 μM inhibitor, human recombinant MAO-A, n = 3
Sequence (P21397 whole entry): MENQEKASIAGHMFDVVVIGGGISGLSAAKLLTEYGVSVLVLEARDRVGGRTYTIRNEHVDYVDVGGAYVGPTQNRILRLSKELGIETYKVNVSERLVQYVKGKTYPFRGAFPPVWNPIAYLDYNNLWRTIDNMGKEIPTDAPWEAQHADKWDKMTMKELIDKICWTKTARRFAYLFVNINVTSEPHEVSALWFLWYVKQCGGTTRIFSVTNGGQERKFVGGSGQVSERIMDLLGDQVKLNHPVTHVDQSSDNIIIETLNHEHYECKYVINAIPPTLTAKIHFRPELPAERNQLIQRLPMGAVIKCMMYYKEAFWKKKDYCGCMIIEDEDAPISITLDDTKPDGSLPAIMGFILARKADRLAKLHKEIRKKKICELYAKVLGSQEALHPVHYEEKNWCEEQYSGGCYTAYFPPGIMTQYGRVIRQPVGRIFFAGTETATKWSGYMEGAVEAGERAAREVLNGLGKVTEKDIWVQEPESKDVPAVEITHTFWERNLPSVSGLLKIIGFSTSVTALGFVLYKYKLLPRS
QUANTITY: inhibition at 10 µM (%)
Numbers only, in %.

Here are 3 compounds together with their reported answers.
>  <SMILES_CODE>
COc1cccc(N2CCN(CCCCOc3c(C(C)=O)c(C)cc4oc(=O)cc(C)c34)CC2)c1

>  <inhibition at 10 µM, %>
55

$$$$
>  <SMILES_CODE>
COc1ccccc1N1CCN(CCCCOc2c(C(C)=O)c(C)cc3oc(=O)cc(C)c23)CC1

>  <inhibition at 10 µM, %>
30

$$$$
>  <SMILES_CODE>
COc1ccccc1N1CCN(CCCOc2ccc3c(C)cc(=O)oc3c2C(C)=O)CC1

>  <inhibition at 10 µM, %>
32

$$$$

// inhibition at 10 µM lookup, compound = COc1cccc(N2CCN(CCCOc3c(C(C)=O)c(C)cc4oc(=O)cc(C)c34)CC2)c1 , result: 39
